Reference source for all entries: patent US11453647B2

- ASSAYED_SYSTEM: A2B receptors (Homo sapiens, UniProt P29275)
- Sequence (P29275 1-332): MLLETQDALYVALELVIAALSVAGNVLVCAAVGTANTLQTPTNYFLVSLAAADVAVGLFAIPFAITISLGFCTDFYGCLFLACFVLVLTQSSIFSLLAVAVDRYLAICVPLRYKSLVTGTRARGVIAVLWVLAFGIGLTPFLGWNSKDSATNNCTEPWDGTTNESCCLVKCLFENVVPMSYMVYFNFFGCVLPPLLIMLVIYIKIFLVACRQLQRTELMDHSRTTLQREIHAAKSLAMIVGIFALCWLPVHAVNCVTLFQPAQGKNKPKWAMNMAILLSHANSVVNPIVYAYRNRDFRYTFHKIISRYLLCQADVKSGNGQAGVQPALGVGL
- EXPERIMENT_SUMMARY: functional cAMP (HTRF) assay, recombinant HEK293 cells expressing human A2B receptor, agonist NECA
- Type: cell-based
- Design: expressed in transfected cells; host or cells: HEK293
MEASUREMENT_NAME: IC50

Use these answered entries as a reference point.
COMPOUND	IC50
COc1ccc(-c2ccccc2)c2nc(NC(=O)N3CCC4(CCOCC4)C3)[nH]c12 [compound 310]	< 0.1 µM
COc1cc(F)c(C2=CCOCC2)c2nc(NC(=O)c3ccc(C(=O)N(C)C)cc3)[nH]c12 [compound 262]	< 0.01 µM
COc1ccc(-c2ccnc(C)c2)c2[nH]c(NC(=O)c3c[nH]cn3)nc12 [compound 299]	< 0.1 µM

Quick one: IC50 for COCCOc1cccc(-c2ccc(OC)c3nc(NC(=O)c4c[nH]cn4)[nH]c23)c1 [compound 267] ?
< 0.01 µM

So what does the record say about IC50 for COc1ccc(-c2ccccc2)c2nc(NC(=O)c3ccc(CCl)cc3)[nH]c12 [compound 10] ?
< 0.1 µM

Param item = COc1ccc(C2CCOCC2)c2nc(NC(=O)c3ccnc(N4CCC(C)(O)CC4)c3)[nH]c12 [compound 118] ; retrieve measured IC50.
> 1 µM

---

# half-life values compiled below
- EXPERIMENT_SUMMARY: pharmacokinetic properties in mouse after single intravenous and oral administration
- Type: in vivo
- CONDITION_DETAILS: female, plasma, 0.2 mg/kg, PK data in mouse
A number alone suffices; assume min.

QUERY_SMILES	half-life / min
COc1ccc(-c2ccccc2)c2nc(NC(=O)N3CCC(C)(O)CC3)[nH]c12	42.6
COc1ccc(-c2cnn(C)c2)c2nc(NC(=O)c3ccnc(N4CC[C@@](C)(O)C4)c3)[nH]c12	37.3
C#CCC1(O)CCN(C(=O)Nc2nc3c(-c4cnn(C)c4)ccc(OC)c3[nH]2)CC1	33.4
COc1ccc(C2CCOCC2)c2nc(NC(=O)c3ccc(Cn4ccnc4)cc3)[nH]c12	58
COc1ccc(-c2cnn(C)c2)c2nc(NC(=O)N3CC[C@@]4(CCCOC4)C3)[nH]c12	66.6
COc1ccc(-c2cnn(C)c2)c2nc(NC(=O)N3CCC(C)(O)CC3)[nH]c12	52
COc1ccc(-c2cnn(C)c2)c2nc(NC(=O)c3ccc(CN4CCCC4=O)cc3)[nH]c12	32.9
COc1ccc(-c2cnn(C)c2)c2nc(NC(=O)c3ccc(C(=O)N(C)C)cc3)[nH]c12	46.1
COc1ccc(-c2cnn(C)c2)c2nc(NC(=O)N3CC[C@@]4(CCOC4)C3)[nH]c12	58

Let's switch to this compound now.
# get_value(readout='half-life', item= COc1ccc(-c2cnn(C)c2)c2nc(NC(=O)N3CC[C@]4(CCOC4)C3)[nH]c12 )
59.3
